Taken from ChEMBL document CHEMBL4602710.

assay: Half life in dog at 1 mg/kg, iv or 5 mg/kg, po; type: ADME, organism-based, Canis lupus familiaris; conditions: in vivo
measured_endpoint: half-life (h)

* Nc1cncc(-c2cn3ccnc3c(Nc3ccc(N4CCN(C5COC5)CC4)cc3)n2)n1 | 5.3

---

experiment: Apparent permeability of compound in human Caco2 cells; format: ADME, cell-based; conditions: Caco-2
measured_endpoint: Papp (×10⁻⁶ cm/s)

• CN(C)C[C@@H]1CN(c2ccc(Nc3nc(-c4ccc5cn[nH]c5c4)cn4ccnc34)cc2)CCO1 = 0.5
• c1cn2cc(-c3cnc4c(n3)NCCO4)nc(Nc3ccc(N4CCN(C5COC5)CC4)cc3)c2n1 = 11
• c1cn2cc(-c3ccc4nc[nH]c4c3)nc(Nc3ccc(N4CCN(C5COC5)CC4)cc3)c2n1 = 0.4
• c1cn2cc(-c3cnc4nc[nH]c4c3)nc(Nc3ccc(N4CCN(C5COC5)CC4)cc3)c2n1 = 2.7
• c1cn2cc(-c3ccc4cn[nH]c4c3)nc(Nc3ccc(N4CCN(C5COC5)CC4)cc3)c2n1 = 5.5
